Measured values drawn from patent US11878975B2 for this set.

target: human TLR9 (Homo sapiens); experiment: TLR9 inhibition reporter assay (HEK-Blue cells, SEAP reporter, ODN2006 stimulation); details: HEK-Blue cells overexpressing human TLR9, SEAP reporter, ODN2006 5 nM
Sequence (Q9NR96 26-1032): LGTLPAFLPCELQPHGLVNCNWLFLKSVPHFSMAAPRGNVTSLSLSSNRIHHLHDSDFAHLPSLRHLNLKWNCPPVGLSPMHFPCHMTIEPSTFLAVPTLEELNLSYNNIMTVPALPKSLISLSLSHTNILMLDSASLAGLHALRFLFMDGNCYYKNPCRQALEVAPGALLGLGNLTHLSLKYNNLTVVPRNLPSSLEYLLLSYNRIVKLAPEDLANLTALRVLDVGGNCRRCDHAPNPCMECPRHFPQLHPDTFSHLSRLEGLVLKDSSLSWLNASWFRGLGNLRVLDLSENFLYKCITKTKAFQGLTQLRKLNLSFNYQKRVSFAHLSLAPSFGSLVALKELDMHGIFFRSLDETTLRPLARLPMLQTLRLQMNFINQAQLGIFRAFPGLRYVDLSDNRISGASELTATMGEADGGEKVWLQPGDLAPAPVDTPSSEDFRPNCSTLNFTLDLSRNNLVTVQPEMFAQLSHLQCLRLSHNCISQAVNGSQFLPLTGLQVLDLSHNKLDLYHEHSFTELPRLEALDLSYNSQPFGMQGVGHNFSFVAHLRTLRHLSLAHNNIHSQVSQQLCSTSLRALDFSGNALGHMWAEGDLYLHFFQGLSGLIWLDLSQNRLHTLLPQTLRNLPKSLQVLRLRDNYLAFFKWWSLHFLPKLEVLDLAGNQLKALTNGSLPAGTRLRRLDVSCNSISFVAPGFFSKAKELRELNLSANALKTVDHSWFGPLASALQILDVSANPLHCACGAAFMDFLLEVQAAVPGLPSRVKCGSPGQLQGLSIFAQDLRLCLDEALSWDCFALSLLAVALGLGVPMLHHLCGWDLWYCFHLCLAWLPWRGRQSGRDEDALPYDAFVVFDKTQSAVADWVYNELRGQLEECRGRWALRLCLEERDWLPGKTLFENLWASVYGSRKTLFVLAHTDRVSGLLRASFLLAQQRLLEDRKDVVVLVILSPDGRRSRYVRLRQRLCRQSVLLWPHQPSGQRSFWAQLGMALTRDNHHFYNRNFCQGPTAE
REPORTED_ENDPOINT: IC50 (nM)

Answered examples (2):
[
  {
    "COMPOUND": "COCCN(C)C1CCC(c2ccc3[nH]c(-c4cn5ncnc5c(C)c4C)c(C(C)C)c3c2)CC1 (single isomer, unassigned) [Example 152]",
    "OBSERVED": 2850
  },
  {
    "COMPOUND": "Cc1cc(-c2[nH]c3ccc(CCN4CCS(=O)(=O)CC4)cc3c2C(C)C)cc(C)n1",
    "OBSERVED": 3430
  }
]

a: COc1cc(-c2[nH]c3ccc(CCN4CCN(C)CC4)cc3c2C(C)C)cn2ncnc12
b: Cc1c(-c2[nH]c3ccc(C4CCC(N(C)C)CC4)cc3c2C(C)C)cn2cnnc2c1C (stereo not shown) [Example 527]
Qu. Kindly identify the item with the lower IC50 figure among these two: a and b // caller expects the label of the chosen entry
Ans. b
(b: 765 nM, a: 2750 nM)
